- targetOrSystem: Muscarinic acetylcholine receptor M2 (Homo sapiens)
- Sequence (P08172 whole entry): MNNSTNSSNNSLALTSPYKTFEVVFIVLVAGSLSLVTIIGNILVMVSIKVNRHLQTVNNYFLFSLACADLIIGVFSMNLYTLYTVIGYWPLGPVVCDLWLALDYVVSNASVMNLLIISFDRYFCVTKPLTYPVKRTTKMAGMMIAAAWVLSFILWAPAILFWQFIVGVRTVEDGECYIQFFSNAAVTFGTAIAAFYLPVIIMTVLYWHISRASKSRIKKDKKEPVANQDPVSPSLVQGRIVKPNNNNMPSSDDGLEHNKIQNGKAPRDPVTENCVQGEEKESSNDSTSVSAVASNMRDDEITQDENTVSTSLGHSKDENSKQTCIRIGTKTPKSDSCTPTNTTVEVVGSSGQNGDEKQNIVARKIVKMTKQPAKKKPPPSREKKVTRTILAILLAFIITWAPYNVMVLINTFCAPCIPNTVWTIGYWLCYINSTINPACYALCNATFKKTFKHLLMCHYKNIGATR
Reported values of pKi for individual entries
Reminder that pKi is minus the log10 of a molar concentration.

Look over these answered cases.
> print(dat)
                             compoundstring  measvalue
1  CN1CCN(C2=Cc3cc(Cl)ccc3C(=CC#N)c3ccccc32)CC1       6.33
2            CC1CCN(CCCC(=O)c2ccc(F)cc2)CC1       5.62

response.value for `CN1CCN(C2=Nc3cscc3C(=CC#N)c3cscc32)CC1` (field: pKi) = 7.21

* * *

- targetOrSystem: Muscarinic acetylcholine receptor M4 (Homo sapiens, UniProt P08173)
- Sequence (P08173 whole entry): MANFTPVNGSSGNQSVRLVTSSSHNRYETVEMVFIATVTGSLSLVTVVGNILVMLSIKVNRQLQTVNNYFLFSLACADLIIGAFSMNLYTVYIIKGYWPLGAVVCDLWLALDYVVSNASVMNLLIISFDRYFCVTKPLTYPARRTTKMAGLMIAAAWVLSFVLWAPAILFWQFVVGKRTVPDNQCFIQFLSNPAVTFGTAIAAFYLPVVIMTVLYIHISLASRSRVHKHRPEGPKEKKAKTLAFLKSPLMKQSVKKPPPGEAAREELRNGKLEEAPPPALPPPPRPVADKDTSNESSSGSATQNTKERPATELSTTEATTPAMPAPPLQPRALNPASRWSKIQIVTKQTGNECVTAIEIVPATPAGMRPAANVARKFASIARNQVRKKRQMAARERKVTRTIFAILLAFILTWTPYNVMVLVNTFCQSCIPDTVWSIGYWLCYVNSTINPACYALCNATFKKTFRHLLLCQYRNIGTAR
Response field label: string, one of criterion met (Ki strictly below 500 nM) or criterion not met.

> print(dat)
                                   compound                            targetorsystem     classlabel
1  O=C1CC2(CCCC2)CC(=O)N1CCCCN1CCN(c2nsc3ccccc23)CC1 [TIOSPERONE]  Muscarinic acetylcholine receptor M4 (Homo sapiens, UniProt P08173)  criterion met

q: State whether 500 nM exceeds Ki recorded for O=C(CCCN1CCC(O)(c2ccc(Br)cc2)CC1)c1ccc(F)cc1 [BROMPERIDOL] .
a: criterion not met

q: Does the reported Ki of the following compound sit strictly below 500 nM? `CN1CCN(C2=Nc3cc(F)ccc3Cc3ccccc32)CC1`
a: criterion met

q: Criterion: Ki strictly below 500 nM. Is it met by `CN(C)CC/C=C1\c2ccccc2Sc2ccc(Cl)cc21` ?
a: criterion met

* * *

- targetOrSystem: Muscarinic acetylcholine receptor M5 (Homo sapiens)
- Sequence (P08912 whole entry): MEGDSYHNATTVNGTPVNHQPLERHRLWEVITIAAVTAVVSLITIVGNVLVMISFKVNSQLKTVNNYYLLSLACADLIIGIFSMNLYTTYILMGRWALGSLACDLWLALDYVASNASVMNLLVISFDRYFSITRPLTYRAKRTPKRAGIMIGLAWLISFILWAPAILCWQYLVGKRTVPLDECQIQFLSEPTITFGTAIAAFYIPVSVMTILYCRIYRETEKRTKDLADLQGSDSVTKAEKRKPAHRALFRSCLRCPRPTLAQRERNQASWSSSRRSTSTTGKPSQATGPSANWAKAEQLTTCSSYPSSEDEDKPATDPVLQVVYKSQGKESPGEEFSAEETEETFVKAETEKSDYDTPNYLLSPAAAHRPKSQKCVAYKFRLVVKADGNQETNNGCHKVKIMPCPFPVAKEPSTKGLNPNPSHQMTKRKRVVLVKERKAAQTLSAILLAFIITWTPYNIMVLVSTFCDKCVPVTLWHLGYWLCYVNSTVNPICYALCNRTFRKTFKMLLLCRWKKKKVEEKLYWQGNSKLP
In this section, each of the compounds is paired with its reported Ki.

> print(dat)
                                   compound  testreadout  measvalue
1      CN1CCN(C2=Nc3cc(F)ccc3Cc3ccccc32)CC1           Ki   0.017 µM
2  OC(CCN1CCCC1)(c1ccccc1)C1CCCCC1 (stereo not drawn)           Ki   0.024 µM
3        CN(C)CCOC1=Cc2ccccc2Sc2ccc(Cl)cc21           Ki    0.26 µM
4  CN1CCN(CC/C=C2/c3ccccc3Sc3ccc(S(=O)(=O)N(C)C)cc32)CC1           Ki    4.31 µM

The compound listed as `O=C1CC2(CCCC2)CC(=O)N1CCCCN1CCN(c2nsc3ccccc23)CC1` has a reported Ki of 3.9 µM

Entry `CN1CCN(C2=Nc3cscc3C(=CC#N)c3cscc32)CC1` , Ki reported as 0.66 µM

For reference, reported Ki for `CC1CCN(CCCC(=O)c2ccc(F)cc2)CC1` stands at > 10 µM

* * *

- targetOrSystem: Muscarinic acetylcholine receptor M4 (Homo sapiens, UniProt P08173)
testReadout: Ki (nM)
Express it in nM; write the number only.

Illustrative cases are given below, each with its answer.
> print(dat)
                                   molecule                            targetorsystem  measvalue
1  OC(CCN1CCCCC1)(c1ccccc1)C1CC2C=CC1C2 (stereo not drawn)  Muscarinic acetylcholine receptor M4 (Homo sapiens, UniProt P08173)        2.4
2            CC1CCN(CCCC(=O)c2ccc(F)cc2)CC1  Muscarinic acetylcholine receptor M4 (Homo sapiens, UniProt P08173)       4400

Below: the item to evaluate.
Result for OC(CCN1CCCC1)(c1ccccc1)C1CCCCC1 (stereo not drawn) , tested on Muscarinic acetylcholine receptor M4 (Homo sapiens, UniProt P08173), Ki: 7

* * *

Reported pKi, Muscarinic acetylcholine receptor M2 (Homo sapiens, UniProt P08172).
Quick note: pKi values are minus log10 of concentrations in mol/L.

Record excerpt, results attached:
> print(dat)
                                   molecule                            targetorsystem  measvalue
1  O=C1CC2(CCCC2)CC(=O)N1CCCCN1CCN(c2nsc3ccccc23)CC1  Muscarinic acetylcholine receptor M2 (Homo sapiens, UniProt P08172)       6.74
2  O=C(CCCN1CCC(O)(c2ccc(Br)cc2)CC1)c1ccc(F)cc1  Muscarinic acetylcholine receptor M2 (Homo sapiens, UniProt P08172)       5.74
3      CN1CCN(C2=Nc3cc(F)ccc3Cc3ccccc32)CC1  Muscarinic acetylcholine receptor M2 (Homo sapiens, UniProt P08172)       7.15
4  CN1CCN(CC/C=C2/c3ccccc3Sc3ccc(S(=O)(=O)N(C)C)cc32)CC1  Muscarinic acetylcholine receptor M2 (Homo sapiens, UniProt P08172)       5.68

Here's the next entry for you.
Tested system Muscarinic acetylcholine receptor M2 (Homo sapiens, UniProt P08172); pKi recorded for CN1CCCCC1CCN1c2ccccc2Sc2ccc([S+](C)[O-])cc21 (stereo not given) was 7.82

* * *

Recorded measurements of Ki, one per entry
- targetOrSystem: Muscarinic acetylcholine receptor M4 (Homo sapiens, UniProt P08173)
- Sequence (P08173 whole entry): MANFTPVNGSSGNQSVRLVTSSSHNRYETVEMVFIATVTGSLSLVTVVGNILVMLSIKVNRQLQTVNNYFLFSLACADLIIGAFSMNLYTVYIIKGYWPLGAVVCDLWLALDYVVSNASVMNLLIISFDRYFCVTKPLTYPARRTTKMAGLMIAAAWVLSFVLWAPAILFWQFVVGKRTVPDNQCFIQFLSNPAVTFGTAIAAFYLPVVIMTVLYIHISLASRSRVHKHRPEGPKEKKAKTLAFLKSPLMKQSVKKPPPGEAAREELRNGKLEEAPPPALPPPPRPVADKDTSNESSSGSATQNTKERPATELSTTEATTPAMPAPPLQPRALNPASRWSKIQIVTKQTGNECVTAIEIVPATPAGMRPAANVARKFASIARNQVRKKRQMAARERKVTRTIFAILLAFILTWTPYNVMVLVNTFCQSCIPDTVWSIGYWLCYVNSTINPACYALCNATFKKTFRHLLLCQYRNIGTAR
Write the answer as a number in µM, unit excluded.

Check out these entries, answers already filled in.
> print(dat)
                                   molecule  measvalue
1  CN1CCN(CC/C=C2/c3ccccc3Sc3ccc(S(=O)(=O)N(C)C)cc32)CC1       1.54
2     CN1CCN(C2=Nc3ccccc3Oc3ccc(Cl)cc32)CC1        0.3
3        CN(C)CCOC1=Cc2ccccc2Sc2ccc(Cl)cc21      0.077
4  CN1CCN(C2=Cc3cc(Cl)ccc3C(=CC#N)c3ccccc32)CC1          1
5    CN1CCN(C2=Nc3cscc3C(=CC#N)c3cscc32)CC1       0.43

Value of measured Ki for the entry CN1CCCCC1CCN1c2ccccc2Sc2ccc([S+](C)[O-])cc21 (stereo unspecified) : 0.019
